- Test system: PPC-1
- protocol text: cells
- assay setup: Homo sapiens, PPC-1, 96 h, read-out: IC50 ± SEM (nM), PPC-1
Cut-off 80 nM on IC50: below means MET, at or above means NOT MET.

Does the reported IC50 of the following molecule sit strictly below 80 nM? COc1cc(C(O)c2csc(-c3ccccc3)n2)cc(OC)c1OC (centres unmarked) [2b]
NOT MET

Does the reported IC50 of the following molecule sit strictly below 80 nM? COc1cc(/C(=N\O)c2csc(-c3ccccc3)n2)cc(OC)c1OC [2e-trans]
NOT MET

Does the reported IC50 of the following molecule sit strictly below 80 nM? O=C(c1ccc(F)cc1)c1cn(S(=O)(=O)c2ccccc2)c(-c2ccc(OCc3ccccc3)cc2)n1 [11jb]
MET

Does the reported IC50 of the following molecule sit strictly below 80 nM? CN(C)c1ccc(-c2nc(C(=O)c3ccc(F)cc3)c[nH]2)cc1 [12gb]
MET

Does the reported IC50 of the following molecule sit strictly below 80 nM? COc1cc(NS(=O)(=O)c2cccc(-c3ccccc3)c2)cc(OC)c1OC [4d]
NOT MET

---

- Tested on: melanoma cell lines (A375, WM-164, B16-F1) and prostate cancer cell lines (LNCaP, DU 145, PC-3, PPC-1)
- protocol text: SRB cytotoxicity, melanoma and prostate cell panel (averages)
- Format: cell-based
- assay setup: Prostate cell; ABI compounds, Tables 11-13; read-out: IC50 (average over cell lines)
- Description: The only compounds which belong to the invention are the ones falling under the scope of formula (XI).
attribute measured: IC50 (nM)
Return type: number; implicit unit nM.

For the compound O=C(c1ccc(F)cc1)c1cn(S(=O)(=O)c2ccccc2)c(-c2ccc(OCc3ccccc3)cc2)n1 [11jb] , give its reported IC50.
61

---

- System: PC-3
- protocol text: cells
- assay setup: Homo sapiens, PC-3, 96 h, read-out: IC50 ± SEM (nM), PC-3
attribute measured: IC50

Guide cases for IC50, answers given:
COc1cc(C(=O)c2csc(Nc3ccc(Cl)cc3)n2)cc(OC)c1OC = 33 nM
COc1ccc(-c2nc(C(=O)c3cc(OC)c(OC)c(OC)c3)cn2S(=O)(=O)c2ccccc2)cc1OC [11ha] = 197 nM
COc1cc(C(=O)c2c[nH]c(-c3ccc(OCc4ccccc4)cc3)n2)cc(OC)c1OC [12ja] = 10000 nM
O=C(c1cc(O)c(O)c(O)c1)c1c[nH]c(-c2cc(O)c(O)c(O)c2)n1 [13ea] = > 10000 nM
COc1ccc(-c2nc(C(=O)c3ccc(F)cc3)c[nH]2)cc1OC [12hb] = 10000 nM

For the compound COc1cc(C(=O)[C@@H]2CSC(c3ccc(O[Si](C)(C)C(C)(C)C)cc3)=N2)cc(OC)c1OC [58a] , give its reported IC50.
183 nM

For the compound COc1cc(C(=O)c2c[nH]c(-c3cc(OC)c(OC)c(OC)c3)n2)cc(OC)c1OC [12ea] , give its reported IC50.
> 10000 nM

For the compound COc1cc(C(=O)c2csc(-c3ccc(CN(C)C)cc3)n2)cc(OC)c1OC.Cl [2u, hydrochloride] , give its reported IC50.
> 10000 nM

For the compound COc1cc(/C(=N/N)c2csc(-c3ccccc3)n2)cc(OC)c1OC [2d-cis] , give its reported IC50.
1120 nM

For the compound `COc1cc(NC(=O)c2csc(-c3ccccc3)n2)cc(OC)c1OC` , give its reported IC50.
> 10000 nM

These data points were gathered from patent EP2608671B1.
